// growth inhibition lookup, one value per entry
Assay: inhibition of 3D7 malaria parasite growth – strain 3D7 (AID 2306);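 note: 0% = DMSO wells and 100% = chloroquine plus artemisinin control wells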
Settings: P. falciparum 3D7 erythrocytic growth, LDH absorbance, 72 h; at 2 µM; hits give high values
MEASUREMENT_TYPE: growth inhibition (%)

CN(C)c1cccc2c1nc(-c1ccco1)n2CC1CCCN1 (centres undefined)
86
CC(C)(C)c1nn(-c2ccc(Cl)cc2)c2[nH]c(=O)c(CNC3CCCC3)cc12
99
CCCOC(=O)C1=C(C)NC2=C(C(=O)CC(c3ccc(OC)c(OC)c3)C2)C1c1cccc(O)c1 (centres undefined)
100
O=C(NCC1CCN(Cc2cccc(C(F)(F)F)c2)C1)c1cc(-c2cccc(C(F)(F)F)c2)cs1 (centres undefined)
100
CCNc1cc(C(=O)N[C@@H](Cc2ccccc2)[C@H](O)CNC(C)(C)Cc2cccc(OC)c2)cc(N2CCCC2=O)c1
99
FC(F)(F)c1ccc2nc(-c3ccc(-c4ccc(CN5CCN(c6ccncc6)CC5)cc4)cc3)[nH]c2c1
101
CCOc1ccc2c(NN=Cc3ccc(OC)c(OC)c3)cc(C)nc2c1
100
CC(C)CN(C)Cc1ccc(-c2ccc(-c3nc4ccccc4[nH]3)s2)cc1
97
CC(C)c1ccc2[nH]c(C(=O)NC3CCC(N4CCCc5ccc(C#N)cc5C4)CC3)cc2c1 (centres undefined)
91

----------
// growth inhibition lookup, one value per entry
Assay: inhibition of 3D7 malaria parasite growth – strain 3D7 (AID 2306);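 note: 0% = DMSO wells and 100% = chloroquine plus artemisinin control wells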
Conditions: P. falciparum 3D7 erythrocytic growth, LDH absorbance, 72 h; at 2 µM; hits give high values
MEASUREMENT_TYPE: growth inhibition (%)

O=C(NC1CCCCC1)C(c1cccs1)N(CCc1ccccc1)C(=O)c1ccco1 (stereo not given)
92
CS(=O)(=O)c1ccccc1CNC(=O)c1ccc(-c2ccc(-c3nc4ccc(C(F)(F)F)cc4[nH]3)s2)cc1
96
CN1CCN(Cc2ccc(-c3ccc4c(Nc5cc(O)c(F)cc5Cl)ccnc4c3)o2)CC1
101
O=C(Nc1ccc2c(c1)CCN2C1CCN(Cc2cc(F)cc(F)c2F)C1)c1ccco1 (stereo not given)
96
Cc1ccc(-n2nc3ccc(NC(=O)c4ccc([N+](=O)[O-])o4)cc3n2)cc1C
94
Cc1csc2nc(-c3ccccn3)nc(Nc3ccncn3)c12
97
Cc1ccc(CNC(=O)[C@H](CC(C)C)Nc2cc(C)nc(Nc3ccccc3)n2)cc1
97
COCCNCc1ncsc1-c1ccc2c(Nc3ccc(Oc4ccccc4)cc3)ccnc2c1
91
CCCCc1ccc(NC(=O)Nc2ccc3c(c2)CCNCC3)cc1
95
Cc1cc(C)c(NC(=O)N[C@H]2CCN(CCCCCNC(=O)/C=C/c3ccc(Cl)c(Cl)c3)C2)c(C)c1
91

----------
Assay: inhibition of 3D7 malaria parasite growth – strain 3D7 (AID 2306);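 note: 0% = DMSO wells and 100% = chloroquine plus artemisinin control wells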
Conditions: P. falciparum 3D7 erythrocytic growth, LDH absorbance, 72 h; at 2 µM; hits give high values
// growth inhibition lookup, one value per entry
MEASUREMENT_TYPE: growth inhibition (%)

CCN(CC)CCN(Cc1ccc(-c2ccc(C(F)(F)F)cc2)cc1)C(=O)Cn1cc(Cc2cnn(C)c2)c(=O)n2nc(-c3ccccc3)cc12
100
O=C(Nc1cccc(CN2CCCN(CCc3ccccc3)CC2)c1)c1ccc(Cl)c(Cl)c1
86
O=C(/C=C/c1ccc(Cl)c(Cl)c1)NCCCN1CCC(c2c[nH]c3ccccc23)CC1
90
COC(=O)c1ccc2nc(-c3cc(-c4cccc(-c5ccccc5)c4)cnc3N)[nH]c2c1
101
CC(C)C[C@H](NC(=O)c1cc(-c2ccc(C(C)(C)C)cc2)no1)C(=O)O (tested in a mixture with another compound)
95
CN1CCC(C(=O)N(Cc2ccc(-c3ccc(CNCCc4ccc(S(C)(=O)=O)cc4)cn3)cc2)C2Cc3ccccc3C2)CC1
98
CN(C)CCCn1c(C(=O)OC(c2ccccc2)c2ccccc2)cc2cc(OCc3ccccc3)ccc21
82
O=C(NC1CCN(Cc2ccccc2)CC1)c1cccc(-c2nc3ccc(Cl)cc3[nH]2)c1
98

----------
Assay: antimalarial activity against Dd2 strain (AID 2302);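 note: 0% = DMSO untreated growth and 100% = chloroquine plus artemisinin killed control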
Settings: P. falciparum Dd2 in RBCs, LDH growth readout, 72 h; at 2 µM
The source made the active and inactive calls.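 Rule for the calls: active = growth inhibition above 50% at the single 2 µM test dose, taken to imply half-maximal potency below 2 µM; inactive = the rest.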
Possible outcomes: TRUE (active), FALSE (inactive)

N#Cc1ccc(NC2(C(=O)N3CCN(c4cccc(Cl)c4)CC3)CC2)c2ccccc12
TRUE
CC(C)CNCc1cccc(-c2ccc(CN(C(=O)NCCc3ccccc3)C3CCN(Cc4ccccc4)CC3)cc2)c1
FALSE
O=C(c1cc(OC(F)(F)F)ccc1O)N1CCN(c2ccccc2)CC1
FALSE
CC(c1cccc(S(=O)(=O)NCc2cccc(C(F)(F)F)c2)c1)N1CCC(N2CCCCC2)CC1 (centres undefined)
FALSE
c1cncc(-c2cc(N3CCc4ccccc4C3)nc(-c3ccncc3)n2)c1
TRUE
OCC1CCN(Cc2cccc(-c3ccc(-c4nc5ccc(C(F)(F)F)cc5[nH]4)cc3)c2)CC1
TRUE
CCOc1cccc(C(=O)Nc2cccc(CN3CCCN(Cc4cccc(O)c4)CC3)c2)c1
FALSE
CCC(=O)N(c1ccccc1)C1CCN(CCCC(NC(=O)Nc2cc(C(F)(F)F)cc(C(F)(F)F)c2)c2ccc(Cl)c(Cl)c2)CC1 (centres undefined)
FALSE
CN1CCN(c2ccnc3ccc(NC(=O)Cc4cccc(Cl)c4Cl)cc23)CC1
TRUE

----------
Experiment: antimalarial activity against Dd2 strain (AID 2302);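 note: 0% = DMSO untreated growth and 100% = chloroquine plus artemisinin killed control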
Settings: P. falciparum Dd2 in RBCs, LDH growth readout, 72 h; at 2 µM; hits give high values
# binarize growth inhibition: threshold 40% inclusive, high side 1.0, low side 0.0

COc1ccc2nc3ccccc3c(NCCN3CCN(C)CC3)c2c1
0.0
Cc1nc2nc(N)nc(N)c2c(C)c1Cc1cccc(C#N)c1
0.0
COc1ccc(-c2ccc(NC(=O)c3ccc(C#N)cc3)cc2)cc1CN(C)CCO
1.0
O=c1[nH]c(=O)n2c(nc3ccccc32)[nH]1
0.0
CN(Cc1ccc(C#N)cc1)C1CCN(c2cc(NC(=O)c3cccc(F)c3)ccn2)CC1
0.0
CN(C)CCOc1ccnc2ccc(NC(=O)Cc3ccc(-c4ccncc4)c4ccccc34)cc12
1.0
Clc1ccccc1OCc1ccccn1
0.0
Cc1cccc2[nH]c(-c3cccc(-c4cccc(NC(=O)Nc5cccc(C#N)c5)c4)c3)nc12
1.0
COc1cc2c(cc1OC)CC(NCc1ccc(-c3ccc4nc[nH]c4c3)cc1)C2
1.0
CCCC(C)N(Cc1ccc(C(C)(C)C)cc1)C(=O)c1cccc(OC)c1 (stereo unspecified)
1.0

----------
Test: HepG2 cytotoxicity, primary screen, cytotoxicity control for P. falciparum antimalarial project, cell-based, ATP luminescence (AID 2303);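 note: 0% = DMSO wells and 100% = digitonin-killed cells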
Conditions: HepG2 viability, 24-48 h, at 10 µM, hits give high values
// inhibition lookup, one value per entry
MEASUREMENT_TYPE: inhibition (%)

Cc1ccc(NC(=S)N2CCCN(CCCCCNC(=O)/C=C/c3ccc(Cl)c(Cl)c3)CC2)cc1Cl
14
Cc1cc(=O)c(-c2cccc(Oc3ccc(Cl)cc3)c2)c(C)[nH]1
-2
COc1ccccc1CCN1CCC(CN(C)Cc2ccc(O)c(Cl)c2)CC1
19
CC[C@H](C)CNC(=O)c1ccnc(-c2ccc(CNC3Cc4ccccc4C3)cc2)c1
18
COc1cccc(CNC(=O)c2cccc(-c3ccc(CN4CCC(N5CCCC5)CC4)cc3)n2)c1
16
O=S(=O)(NCCN1CCCC1)c1ccc(-c2ccccc2CNC2Cc3ccccc3C2)cc1
19
CC(C)CNCc1cccc(-c2ccc(CN(CCCN3CCN(C)CC3)C(=O)/C=C/c3ccccc3)cc2)c1
48
COc1cc2ccccc2c(CON2C(N)=NC(N)=NC2(C)C)c1OC
2
Cc1[nH]c(C)c(-c2ccc(-c3ccccc3F)nc2)c(=O)c1Br
2
CCCCOc1ccc(/C=C/c2ccc(-c3c(C)[nH]c(C)c(Cl)c3=O)s2)cc1
-4

----------
Test: inhibition of 3D7 malaria parasite growth – strain 3D7 (AID 2306);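 note: 0% = DMSO wells and 100% = chloroquine plus artemisinin control wells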
Conditions: P. falciparum 3D7 erythrocytic growth, LDH absorbance, 72 h; at 2 µM; hits give high values
# binarize growth inhibition: threshold 90% inclusive, high side label 1, low side label 0

Cc1cc(NN=Cc2ccc(F)cc2)c2ccc(F)cc2n1
label 1
CCC(C)C(COC(=O)c1cc(OC)c(OC)c(OC)c1)N(C)CCN(C)C(COC(=O)c1cc(OC)c(OC)c(OC)c1)C(C)CC (stereo not given)
label 0
Cc1cc(NN=Cc2cccc(F)c2)c2cc(F)ccc2n1
label 1
COc1cc(OC)cc(C(=O)Nc2cccc(-c3cn4ccc(C)cc4n3)c2)c1
label 0
N#CC(NC(=O)C=Cc1ccccc1)c1ccccc1 (stereo not given)
label 1
O=C(Nc1cccc(-c2nn3ccccc3c2-c2ccnc(Nc3cccc(F)c3)n2)c1)c1c(F)ccc(F)c1Cl
label 1
COc1ccc2ncc(C)c(CCN3CCC(NCc4ccc5c(n4)NC(=O)CS5)CC3)c2c1
label 1
CCCCCCCN(CCCCCCC)CCCC(=O)Nc1ccnc2ccc(OC)cc12
label 1

----------
// growth inhibition lookup, one value per entry
Assay: inhibition of 3D7 malaria parasite growth – strain 3D7 (AID 2306);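 note: 0% = DMSO wells and 100% = chloroquine plus artemisinin control wells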
Conditions: P. falciparum 3D7 erythrocytic growth, LDH absorbance, 72 h; at 2 µM; hits give high values
The source made the active and inactive calls. How the calls were made is not given here.
MEASUREMENT_TYPE: growth inhibition

O=C(Nc1ccc(Cn2ncc(N3CCCNCC3)c(Cl)c2=O)cc1)Nc1ccc(OCc2ccccc2)cc1
90% (active)
Cn1cnc2nc(NCCc3ccccc3)nc(NCc3cccc4ccccc34)c21
95% (active)
COc1ccc(CNC2CCN(C)CC2)cc1-c1ccc(S(=O)(=O)NCc2ccccc2)cc1
100% (active)
CCc1c(CCNCCCCCCNCCc2ccccc2)ccc(OC)c1OC
102% (active)
CCCc1nc2c(N3CC(NC(=O)/C=C/c4ccccc4)C3)cccc2n1C1CC1
83% (active)
C=CCC(C(=O)Nc1ccnc2ccc(OC)cc12)C1CCN(CCCCCCC)CC1 (centres undefined)
86% (active)
CC(=O)Oc1cc(C)ccc1C1CCN(CCCCNC(=O)c2ccc(NC(=O)c3ccc(Cl)cc3)cc2)CC1
100% (active)
CN1CCC(NCc2cccc(-c3cccc(S(=O)(=O)NCc4ccccc4)c3)c2)CC1
100% (active)
O=C(NC1CCN(Cc2ccc(F)cc2)CC1)c1ccc(-c2cccc(C(F)(F)F)c2)s1
83% (active)
CNC(=O)c1cnc(Nc2ccc(N3CCN(C)CC3)cc2)nc1Nc1cccc(OC)c1
100% (active)
CC(C)CNCc1cccc(-c2ccc(CN(CCCN3CCN(C)CC3)C(=O)CCC3CCCC3)cc2)c1
98% (active)
O=C(c1cccc(-c2noc(C(F)(F)F)n2)c1)N1CCN(C(=O)c2ccc3cc[nH]c3c2)CC1
94% (active)
O=C(NC1CCN(c2ccnc3cc(Cl)ccc23)C1)c1cccc(F)c1 (centres undefined)
95% (active)
CCCCCCN1CCC(CNCc2cccc([N+](=O)[O-])c2)CC1
95% (active)
CC(C)CCNC(=O)C1Cc2c([nH]c3ccc(Br)cc23)C2(CCN(CCc3ccccc3)CC2)N1 (centres undefined)
101% (active)
CC(=O)Nc1ccc(C(=O)Nc2cccc(-c3ccc(-c4nc5c(C)cccc5[nH]4)cc3)c2)cn1
100% (active)
O=C(/C=C/c1cccc2c1OCO2)Nc1ccnc2ccncc12
90% (active)
CC1(C)N=C(N)N=C(N)N1c1ccc(I)cc1
92% (active)
Fc1cc(Cl)ccc1Nc1ccnc2cc(-c3ccc(CN4CCCCC4)o3)ccc12
100% (active)
COc1ccc(-c2ccccc2OCCCNc2nc(NCCc3ccc(O)cc3)nc(N3CCNCC3)n2)cc1
99% (active)
COc1ccc(C(=O)CCC(=O)N(CCSC(C)(C)C)Cc2ccc(-c3ccc(CNCCc4ccc(S(C)(=O)=O)cc4)cn3)cc2)cc1F
98% (active)
CN1CCC(N2CCN(Cc3cccc(-c4ccc(-c5nc6ccccc6[nH]5)cc4)c3)CC2)CC1
100% (active)
Cc1cc(NC(=O)Nc2ccc3sccc3c2)c2ccccc2n1
99% (active)
Cc1ccccc1Nc1nc(NCCCO)c2ccccc2n1
83% (active)
OC(CNc1ccnc(Nc2ccc(Cl)cc2)n1)c1ccc(C(F)(F)F)cc1 (centres undefined)
101% (active)
COc1ccc(S(=O)(=O)N(c2cc(Br)cc3c2OCC3)S(=O)(=O)c2ccc(OC)c(N3CCN(C)CC3)c2)cc1N1CCN(C)CC1
81% (active)
CC(CCCCC(=O)Nc1ccc(CC(C)NCCc2cccc(Cl)c2)cc1)NCCc1cccc(Cl)c1 (centres undefined)
91% (active)
CS(=O)(=O)CCNCc1nc(-c2ccc3c(=O)[nH]cnc3c2)cs1
86% (active)
CC(C)n1ncc2c(C(=O)N3CCCCCC3)cc(-c3ccccc3)nc21
97% (active)
CC(C)(C)c1ccc(CNC(=O)c2cc(CNC3CCC(N)CC3)ccc2O)cc1 (centres undefined)
94% (active)
CCOc1ccc(CCCON2C(N)=NC(N)=NC2(C)C)cc1
93% (active)
CCc1cc(NC(=O)Nc2ccnc3ccccc23)ccc1OC
85% (active)
O=C(N[C@@H](CC1CCCCC1)C(=O)NC1CCCCC1)c1ccc(O)c(-c2cccc(C(F)(F)F)c2)c1
100% (active)
CN1CCN(c2ccc(-c3cc(-c4cc(F)c(F)c(F)c4)cnc3N)cc2)CC1
88% (active)
CC(C)(C)c1ccc(C(=O)Nc2ccc3nc4c(c(N)c3c2)CCCC4)cc1
100% (active)
O=C(NC1CCCCC1)c1csc(C2CCCN(C(=O)c3ccc(O)c(-c4cccc(C(F)(F)F)c4)c3)C2)n1 (centres undefined)
96% (active)
CCNc1cc(C(=O)N[C@@H](Cc2ccccc2)[C@H](O)CNC23CCC(CC2)CC3)cc(N2CCCCS2(=O)=O)c1
99% (active)
Clc1cc(Nc2ncnc3sc(C#Cc4ncc[nH]4)cc23)ccc1OCc1ccccn1
101% (active)
N#CCSc1nnc(-c2ccccc2)c2ccccc12
84% (active)
